In this section, each of the compounds is paired with its reported Injected dose/g tissue.
Test system: Rattus norvegicus
Test: Distribution of the [125I]-labeled compound in heart tissue of female Fischer 344 rat 120 min after intravenous administration. Value in the parentheses is ratio of distribution in heart and blood
Format: ADME, organism-based
Details: in vivo, 2 h
Field format: number, assumed %, no unit text.

Some compounds with recorded Injected dose/g tissue:
                      entrysmiles      subjectoftest  unitsofmeasure  resultnumber
0  O=C(O)CCC[Te]CCCCCCCCCCC/C=C/I  Rattus norvegicus               %           3.6
1  O=C(O)CCCCCCCCC[Te]CCCCC/C=C/I  Rattus norvegicus               %           3.8
2  O=C(O)CCCCCCC[Te]CCCCCCC/C=C/I  Rattus norvegicus               %           3.9
3  O=C(O)CCCCC[Te]CCCCCCCCC/C=C/I  Rattus norvegicus               %           2.9

The reported Injected dose/g tissue of the compound O=C(O)CCCCCCCCCCC[Te]CCC/C=C/I was 1

These measurements were taken from ChEMBL document CHEMBL1122605.
